- Tested on: Mycobacterium tuberculosis Erdman (autoluminescent)
- Test method notes: GRinf, maximum normalised growth rate inhibition (unitless (-1 to 1)); higher = less effect (negative = killing)
- Assay context: in vitro model: cholesterol 0.05 mM; time point: terminal (~4-5 doublings, model-specific)
Outcome label depends on GRinf relative to -0.2: at/above gives met, below gives not met.

Before answering, review these 5 worked examples.
Compound	Class name
NNC(=O)c1ccncc1 [isoniazid] + O=[N+]([O-])c1cn2c(n1)OC[C@@H](OCc1ccc(OC(F)(F)F)cc1)C2 [pretomanid]	not met
COc1nc2ccc(Br)cc2cc1[C@@H](c1ccccc1)[C@@](O)(CCN(C)C)c1cccc2ccccc12 [bedaquiline] + COc1c(N2C[C@@H]3CCCN[C@@H]3C2)c(F)cc2c(=O)c(C(=O)O)cn(C3CC3)c12 [moxifloxacin]	not met
CC(=O)NC[C@H]1CN(c2ccc(N3CCOCC3)c(F)c2)C(=O)O1 [linezolid] + O=[N+]([O-])c1cn2c(n1)OC[C@@H](OCc1ccc(OC(F)(F)F)cc1)C2	met
CC[C@@H](CO)NCCN[C@@H](CC)CO [ethambutol] + NNC(=O)c1ccncc1 [isoniazid]	met
NC(=O)c1cnccn1 [pyrazinamide] + CO[C@H]1/C=C/O[C@@]2(C)Oc3c(C)c(O)c4c(O)c(c(/C=N/N5CCN(C6CCCC6)CC5)c(O)c4c3C2=O)NC(=O)/C(C)=C\C=C\[C@H](C)[C@H](O)[C@@H](C)[C@@H](O)[C@@H](C)[C@H](OC(C)=O)[C@@H]1C	not met

Threshold query (GRinf >= -0.2) on COc1c(N2C[C@@H]3CCCN[C@@H]3C2)c(F)cc2c(=O)c(C(=O)O)cn(C3CC3)c12 [moxifloxacin] + NC(=O)c1cnccn1 [pyrazinamide] met

Threshold query (GRinf >= -0.2) on COc1nc2ccc(Br)cc2cc1[C@@H](c1ccccc1)[C@@](O)(CCN(C)C)c1cccc2ccccc12 [bedaquiline] + NC(=O)c1cnccn1 [pyrazinamide] not met

---

- Test system: Mycobacterium tuberculosis Erdman (autoluminescent)
- Test method notes: total FIC50 (Loewe) at 50% inhibition, three-drug combination (log2); higher = more antagonistic
- Assay context: in vitro model: dormancy (butyrate + nitrate, low O2); time point: constant (~7 days, model-specific)
Assay metric: total FIC50

Name the recorded total FIC50 of the compound listed here: COc1nc2ccc(Br)cc2cc1[C@@H](c1ccccc1)[C@@](O)(CCN(C)C)c1cccc2ccccc12 [bedaquiline] + CC(=O)NC[C@H]1CN(c2ccc(N3CCOCC3)c(F)c2)C(=O)O1 [linezolid] + CO[C@H]1/C=C/O[C@@]2(C)Oc3c(C)c(O)c4c(O)c(c(/C=N/N5CCN(C6CCCC6)CC5)c(O)c4c3C2=O)NC(=O)/C(C)=C\C=C\[C@H](C)[C@H](O)[C@@H](C)[C@@H](O)[C@@H](C)[C@H](OC(C)=O)[C@@H]1C [rifapentine] 0.915

Name the recorded total FIC50 of the compound listed here: COc1nc2ccc(Br)cc2cc1[C@@H](c1ccccc1)[C@@](O)(CCN(C)C)c1cccc2ccccc12 [bedaquiline] + CC(C)/N=c1\cc2n(-c3ccc(Cl)cc3)c3ccccc3nc-2cc1Nc1ccc(Cl)cc1 [clofazimine] + CO[C@H]1/C=C/O[C@@]2(C)Oc3c(C)c(O)c4c(O)c(c(/C=N/N5CCN(C6CCCC6)CC5)c(O)c4c3C2=O)NC(=O)/C(C)=C\C=C\[C@H](C)[C@H](O)[C@@H](C)[C@@H](O)[C@@H](C)[C@H](OC(C)=O)[C@@H]1C [rifapentine] -0.0609

Name the recorded total FIC50 of the compound listed here: NNC(=O)c1ccncc1 [isoniazid] + CC(=O)NC[C@H]1CN(c2ccc(N3CCOCC3)c(F)c2)C(=O)O1 [linezolid] + O=[N+]([O-])c1cn2c(n1)OC[C@@H](OCc1ccc(OC(F)(F)F)cc1)C2 [pretomanid] 4.26

Name the recorded total FIC50 of the compound listed here: CC(=O)NC[C@H]1CN(c2ccc(N3CCOCC3)c(F)c2)C(=O)O1 [linezolid] + NC(=O)c1cnccn1 [pyrazinamide] + CO[C@H]1/C=C/O[C@@]2(C)Oc3c(C)c(O)c4c(O)c(c(/C=N/N5CCN(C)CC5)c(O)c4c3C2=O)NC(=O)/C(C)=C\C=C\[C@H](C)[C@H](O)[C@@H](C)[C@@H](O)[C@@H](C)[C@H](OC(C)=O)[C@@H]1C [rifampicin] 0.486

Name the recorded total FIC50 of the compound listed here: COc1nc2ccc(Br)cc2cc1[C@@H](c1ccccc1)[C@@](O)(CCN(C)C)c1cccc2ccccc12 [bedaquiline] + CC[C@@H](CO)NCCN[C@@H](CC)CO [ethambutol] + COc1c(N2C[C@@H]3CCCN[C@@H]3C2)c(F)cc2c(=O)c(C(=O)O)cn(C3CC3)c12 [moxifloxacin] 1.02

Name the recorded total FIC50 of the compound listed here: CC[C@@H](CO)NCCN[C@@H](CC)CO [ethambutol] + COc1c(N2C[C@@H]3CCCN[C@@H]3C2)c(F)cc2c(=O)c(C(=O)O)cn(C3CC3)c12 [moxifloxacin] + NC(=O)c1cnccn1 [pyrazinamide] -0.23

Name the recorded total FIC50 of the compound listed here: CC[C@@H](CO)NCCN[C@@H](CC)CO [ethambutol] + NNC(=O)c1ccncc1 [isoniazid] + COc1c(N2C[C@@H]3CCCN[C@@H]3C2)c(F)cc2c(=O)c(C(=O)O)cn(C3CC3)c12 [moxifloxacin] 0.357

Name the recorded total FIC50 of the compound listed here: COc1nc2ccc(Br)cc2cc1[C@@H](c1ccccc1)[C@@](O)(CCN(C)C)c1cccc2ccccc12 [bedaquiline] + CC(=O)NC[C@H]1CN(c2ccc(N3CCOCC3)c(F)c2)C(=O)O1 [linezolid] + O=[N+]([O-])c1cn2c(n1)OC[C@@H](OCc1ccc(OC(F)(F)F)cc1)C2 [pretomanid] -0.22

Name the recorded total FIC50 of the compound listed here: CC(C)/N=c1\cc2n(-c3ccc(Cl)cc3)c3ccccc3nc-2cc1Nc1ccc(Cl)cc1 [clofazimine] + CC[C@@H](CO)NCCN[C@@H](CC)CO [ethambutol] + COc1c(N2C[C@@H]3CCCN[C@@H]3C2)c(F)cc2c(=O)c(C(=O)O)cn(C3CC3)c12 [moxifloxacin] 0.137

Name the recorded total FIC50 of the compound listed here: CC(C)/N=c1\cc2n(-c3ccc(Cl)cc3)c3ccccc3nc-2cc1Nc1ccc(Cl)cc1 [clofazimine] + CC(=O)NC[C@H]1CN(c2ccc(N3CCOCC3)c(F)c2)C(=O)O1 [linezolid] + CO[C@H]1/C=C/O[C@@]2(C)Oc3c(C)c(O)c4c(O)c(c(/C=N/N5CCN(C6CCCC6)CC5)c(O)c4c3C2=O)NC(=O)/C(C)=C\C=C\[C@H](C)[C@H](O)[C@@H](C)[C@@H](O)[C@@H](C)[C@H](OC(C)=O)[C@@H]1C [rifapentine] 1.42

Name the recorded total FIC50 of the compound listed here: CC(C)/N=c1\cc2n(-c3ccc(Cl)cc3)c3ccccc3nc-2cc1Nc1ccc(Cl)cc1 [clofazimine] + NC(=O)c1cnccn1 [pyrazinamide] + CO[C@H]1/C=C/O[C@@]2(C)Oc3c(C)c(O)c4c(O)c(c(/C=N/N5CCN(C6CCCC6)CC5)c(O)c4c3C2=O)NC(=O)/C(C)=C\C=C\[C@H](C)[C@H](O)[C@@H](C)[C@@H](O)[C@@H](C)[C@H](OC(C)=O)[C@@H]1C [rifapentine] -0.285

Name the recorded total FIC50 of the compound listed here: CC(C)/N=c1\cc2n(-c3ccc(Cl)cc3)c3ccccc3nc-2cc1Nc1ccc(Cl)cc1 [clofazimine] + CC(=O)NC[C@H]1CN(c2ccc(N3CCOCC3)c(F)c2)C(=O)O1 [linezolid] + O=[N+]([O-])c1cn2c(n1)OC[C@@H](OCc1ccc(OC(F)(F)F)cc1)C2 [pretomanid] 0.87

Reference source: the supplement of paper PMC8617591
